Reference source: ChEMBL document CHEMBL3991601

# target.system: UniProt Q13470
# Sequence (Q13470 whole entry): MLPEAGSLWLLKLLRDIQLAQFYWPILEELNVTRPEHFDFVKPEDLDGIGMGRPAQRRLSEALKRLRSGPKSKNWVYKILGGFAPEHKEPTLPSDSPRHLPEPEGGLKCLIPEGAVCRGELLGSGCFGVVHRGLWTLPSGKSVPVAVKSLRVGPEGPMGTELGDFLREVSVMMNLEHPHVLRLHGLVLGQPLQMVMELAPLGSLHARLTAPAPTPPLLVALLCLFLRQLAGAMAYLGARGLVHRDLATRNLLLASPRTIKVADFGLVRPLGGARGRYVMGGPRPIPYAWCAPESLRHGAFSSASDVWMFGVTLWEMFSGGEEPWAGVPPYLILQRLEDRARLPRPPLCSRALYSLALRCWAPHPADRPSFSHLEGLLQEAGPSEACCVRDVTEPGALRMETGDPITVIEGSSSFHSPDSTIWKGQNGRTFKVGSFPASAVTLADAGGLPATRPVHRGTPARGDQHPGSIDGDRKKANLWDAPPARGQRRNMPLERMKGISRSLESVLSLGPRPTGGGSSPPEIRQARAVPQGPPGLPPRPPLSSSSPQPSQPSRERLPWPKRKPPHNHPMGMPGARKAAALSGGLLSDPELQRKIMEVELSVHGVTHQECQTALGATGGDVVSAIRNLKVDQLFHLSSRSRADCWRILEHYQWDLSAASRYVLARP
Activity calls are given as the source filed them.
The categories you may choose from are 1 (active), -1 (inactive)

Q: Would you mind telling me which call this test gave COc1cc2ncnc(Nc3ccc(O)cc3)c2cc1OC ?
Result: -1

Q: Again, but for CC(C)(O)CC(=O)NCCn1ccc2ncnc(Nc3ccc(Oc4cccc(C(F)(F)F)c4)c(Cl)c3)c21
Result: -1

Q: Again, but for CN(c1ncccc1CNc1nc(Nc2ccc3c(c2)CC(=O)N3)ncc1C(F)(F)F)S(C)(=O)=O
Result: -1

Q: Again, but for CNC(=O)c1ccc(Nc2ncc(C(F)(F)F)c(NCc3nccnc3N(C)S(C)(=O)=O)n2)cc1
Result: 1
